Measured values drawn from patent US5442077A for this set.

target: 5-HT4 receptor (Rattus norvegicus, UniProt Q62758); construct: muscular sample of mucous membrane in esophgus exentrated from a rat; experiment: Agonisting Action to 5-HT4 Receptor (relaxation of carbachol-treated oesophageal mucous membrane muscle sample); settings: negative logarithm of concentration causing 50% relaxation, rat esophagus
Sequence (Q62758 whole entry): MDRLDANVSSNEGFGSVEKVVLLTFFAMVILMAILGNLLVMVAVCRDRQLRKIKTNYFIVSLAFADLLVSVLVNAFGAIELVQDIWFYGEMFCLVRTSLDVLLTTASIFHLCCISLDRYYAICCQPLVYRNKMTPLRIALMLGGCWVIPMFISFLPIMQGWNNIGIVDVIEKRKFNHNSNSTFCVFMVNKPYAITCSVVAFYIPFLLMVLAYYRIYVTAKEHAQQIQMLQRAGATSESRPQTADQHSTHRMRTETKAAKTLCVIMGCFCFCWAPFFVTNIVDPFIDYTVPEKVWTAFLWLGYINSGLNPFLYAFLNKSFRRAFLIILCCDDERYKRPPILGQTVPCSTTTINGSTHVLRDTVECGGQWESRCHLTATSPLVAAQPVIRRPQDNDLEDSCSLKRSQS
pEC50: −log10 of the molar value.
Test readout: pEC50

// below: answered compounds
INSERT INTO results (compound, reported_measurement) VALUES
  ('CCC1Cc2c(N)c(Cl)cc(C(=O)NCCC34CCCN3CCC4)c2O1 (centres unmarked)', 7.70),
  ('CC1(C)Cc2c(N)c(Cl)cc(C(=O)NCCC34CCCN3CCC4)c2O1', 6.50),
  ('CC(=O)Nc1c(Cl)cc(C(=O)NCCC23CCCN2CCC3)c2c1CC(C)O2 (centres unmarked)', 6.50),
  ('Nc1c(Cl)cc(C(=O)NCCC23CCCN2CCC3)c2c1CCO2', 6.50),
  ('CC1Cc2c(N)c(Cl)cc(C(=O)NCCC34CCCN3CCC4)c2O1 (centres unmarked) [2 (*)]', 7.40);

A = CC1Cc2c(N)ccc(C(=O)NCCC34CCCN3CCC4)c2O1 (centres unmarked)
B = CC1Oc2c(C(=O)NCCC34CCCN3CCC4)cc(Cl)c(N)c2C1C (centres unmarked)
I would appreciate it if you could say which entry, A or B , has the lower pEC50 value. // output: label of the selected item
A
(A: 6.00, B: 7.90)

P = CC1Cc2c(N)c(Cl)cc(C(=O)NCCC34CCCN3CCC4)c2O1 (single isomer, unassigned; (-)) [Example 3]
Q = CC1Cc2cc(Cl)cc(C(=O)NCCC34CCCN3CCC4)c2O1 (centres unmarked)
R = CC1Cc2c(N)c(Cl)cc(C(=O)NCCC34CCCN3CCC4)c2O1 (single isomer, unassigned; (+)) [Example 4]
Hey, can you sort those compounds up there by pEC50, smallest first? Please write the labels in the order that was asked for.
Q, R, P

====

system: dopamine D2 receptor; assay: Anti-Dopamine Action (general symptoms including catalepsy and blepharoptosis); assay type: in vivo, rat; details: oral, rats, 1000 mg/kg, observed for 2 days
Test readout: Influence on central nervous system, 1000 mg/kg

INSERT INTO assay_data (compound, reported_measurement) VALUES
  ('CC1Cc2c(N)c(Cl)cc(C(=O)NCCC34CCCN3CCC4)c2O1 (stereo not shown)', '-'),
  ('COc1cc(N)c(Cl)cc1C(=O)NC1CCN(CCCOc2ccc(F)cc2)CC1OC (stereo not shown) [Cisapride, reference compound]', '++'),
  ('CC1(C)Cc2c(N)c(Cl)cc(C(=O)NCCC34CCCN3CCC4)c2O1', '-'),
  ('Nc1c(Cl)cc(C(=O)NCCC23CCCN2CCC3)c2c1CCO2', '-');
